Assay: GI50 against HeLa cells, Cell Titer Glo viability assay
Type: cell-based, human
Settings: human, HeLa cells, 24 h
Where a name gives a salt, the structure may show the parent alone.

| compound | GI50 at 24 h |
| --- | --- |
| N=C(N)NCC1CN(c2nc3ccc(Cl)cc3s2)Cc2[nH]c3ccc(Cl)cc3c21 (racemic) [Compound 12g, hydrochloride] | 14.1 µg/mL |
